Answer each item with its documented EC50.
Target Entity: CPXV ortholog of A27 (cowpox virus)
Protocol Summary: lysate ELISA
Form entry: value (µg/mL) — number only.

Query :: Quickly give me recorded EC50 for VACV-154 (antibody, V domains shown) VH: EVQLLESGGGLVQPGESLRLSCAASGFTLRNYAMSWVRQTPGKGLEWVSAISGSGGSTYYADSVKGRFTISRDTSKNTLYVQMNSLRAEDTAVYYCAKIRLDSSGYSGAFDIWGQGTRVTVSS VL: SYELTQPPSVSVSPGQTARITCSGDALPKQYASWYQQKPGQAPVLVIYKDSERPSGIPERFSGSSSGTTVTLTISGVQAEDEADYYCQSADSSGTYPVVFGGGTQLTVL
Result :: 0.02

Query :: Quickly give me recorded EC50 for VACV-300 (antibody, V domains shown) V domain 1: QVQLVQSGAEVKKPGSSVKVSCKASGGTFSSYAISWVRQAPGQGLEWMGGIIPIFGTANYAQKFQGRVTITADESTGTAYMELTSLRSEDTAIYYCARASEQWLASINWFDPWGQGTLVTVSS V domain 2: QSALTQPASVSGSPGQSITISCTGTSSDVGSYNLVSWYQQHPGKAPKLMIYEVSKRPSGVSNRFSASKSGNTASLTISGLQAEDEADYYCCSYAGSSTLVFGGGTQVTVL
Result :: 0.06

Query :: Quickly give me recorded EC50 for VACV-303 (antibody, V domains shown) VH: EVQLLESGGGLVQPGGSLRLSCAASGFTFSSYAMSWVRQAPGKGLEWVSAISGTGGNTYYADSVKGRFTISRDKSKNTLYLQMHSLRAEDTAVYYCATSLIWWLQSDYWGQGTLVTVSS VL: DIQMTQSPSSLSASVGDRVTITCRASQSIASYLIWYQQKPGNAPKLLIYAASSLQSGVPSRFSGSGSGTDFTLTISSLQPEDFATYYCQQSYSTPQTFGQGTKVDIK
Result :: 0.004
